biological target: human Nav1.6 channels stably expressed in HEK 293 cells (Homo sapiens); construct: expressed in transfected cells; host or cells: HEK 293; experiment: Qube automated patch-clamp assay, inhibition of sodium current; format: cell-based; settings: holding potential −65 mV; max concentration tested 33750 nM
Sequence (Q9UQD0 whole entry): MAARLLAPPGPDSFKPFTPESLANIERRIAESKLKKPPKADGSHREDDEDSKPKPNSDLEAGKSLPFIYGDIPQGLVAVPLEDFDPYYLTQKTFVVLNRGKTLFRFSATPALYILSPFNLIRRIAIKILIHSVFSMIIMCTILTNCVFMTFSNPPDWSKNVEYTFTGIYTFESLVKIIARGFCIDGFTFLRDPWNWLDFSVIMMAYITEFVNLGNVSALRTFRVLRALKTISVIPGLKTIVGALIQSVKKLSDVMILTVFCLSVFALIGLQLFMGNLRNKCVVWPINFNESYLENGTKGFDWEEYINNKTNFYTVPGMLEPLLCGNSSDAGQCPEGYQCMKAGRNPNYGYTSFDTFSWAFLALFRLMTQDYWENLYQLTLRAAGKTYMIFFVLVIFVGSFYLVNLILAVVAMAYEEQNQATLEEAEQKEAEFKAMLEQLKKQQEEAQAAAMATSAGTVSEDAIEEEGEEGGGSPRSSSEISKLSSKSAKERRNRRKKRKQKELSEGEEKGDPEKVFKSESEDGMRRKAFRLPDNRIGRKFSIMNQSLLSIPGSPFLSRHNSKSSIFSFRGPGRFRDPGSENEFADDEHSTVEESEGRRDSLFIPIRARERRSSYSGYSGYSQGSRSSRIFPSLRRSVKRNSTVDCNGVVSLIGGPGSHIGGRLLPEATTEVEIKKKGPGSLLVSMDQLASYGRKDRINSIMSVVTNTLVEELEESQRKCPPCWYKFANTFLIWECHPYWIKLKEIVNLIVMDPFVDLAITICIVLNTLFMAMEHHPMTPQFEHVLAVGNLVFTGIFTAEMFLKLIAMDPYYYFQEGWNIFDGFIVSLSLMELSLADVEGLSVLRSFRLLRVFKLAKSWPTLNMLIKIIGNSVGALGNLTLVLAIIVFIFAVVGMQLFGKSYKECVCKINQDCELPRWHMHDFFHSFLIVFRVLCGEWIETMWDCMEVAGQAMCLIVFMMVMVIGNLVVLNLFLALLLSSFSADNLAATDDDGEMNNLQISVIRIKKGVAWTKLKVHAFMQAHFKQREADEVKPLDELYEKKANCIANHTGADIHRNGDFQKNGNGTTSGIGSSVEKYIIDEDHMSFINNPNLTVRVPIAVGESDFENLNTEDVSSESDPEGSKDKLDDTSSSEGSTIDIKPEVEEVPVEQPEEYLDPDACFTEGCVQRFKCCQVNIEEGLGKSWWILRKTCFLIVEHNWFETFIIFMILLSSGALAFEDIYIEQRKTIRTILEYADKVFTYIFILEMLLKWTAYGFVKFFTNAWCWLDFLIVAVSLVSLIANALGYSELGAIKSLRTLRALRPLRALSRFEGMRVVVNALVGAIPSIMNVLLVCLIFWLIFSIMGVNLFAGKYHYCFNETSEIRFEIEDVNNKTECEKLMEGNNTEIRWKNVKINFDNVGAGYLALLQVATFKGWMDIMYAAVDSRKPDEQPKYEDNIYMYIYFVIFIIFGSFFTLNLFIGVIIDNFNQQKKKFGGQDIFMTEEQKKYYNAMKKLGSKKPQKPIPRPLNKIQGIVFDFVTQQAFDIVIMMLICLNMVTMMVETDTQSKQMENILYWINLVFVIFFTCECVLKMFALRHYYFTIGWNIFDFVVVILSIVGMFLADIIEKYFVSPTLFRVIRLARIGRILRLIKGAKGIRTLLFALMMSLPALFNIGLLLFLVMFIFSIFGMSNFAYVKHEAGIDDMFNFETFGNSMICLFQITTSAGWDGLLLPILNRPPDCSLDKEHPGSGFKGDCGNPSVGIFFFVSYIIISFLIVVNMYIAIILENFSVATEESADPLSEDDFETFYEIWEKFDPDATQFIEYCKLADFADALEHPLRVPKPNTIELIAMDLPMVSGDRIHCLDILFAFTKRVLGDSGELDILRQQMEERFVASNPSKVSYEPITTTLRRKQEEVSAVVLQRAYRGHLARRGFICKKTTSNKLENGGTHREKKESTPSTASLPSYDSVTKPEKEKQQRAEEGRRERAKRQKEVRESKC
Record form. Attribute: IC50. Fill in for each entry.

Task item: Entry C[C@@H](N)C(CNc1cc(F)c(S(=O)(=O)Nc2ncns2)cc1Br)CC1(CCN)CC(F)(F)C1 (single isomer, unassigned) : reported IC50 = ?
Reply: 224 nM

Task item: // next record CC(C)C(N)CC(CNc1cc(F)c(S(=O)(=O)Nc2ncns2)cc1Br)[C@@H](C)N (single isomer, unassigned) [Example 108]
Reply: > 33800 nM

Task item: Also need COC(CN)C[C@@H](CNc1cc(F)c(S(=O)(=O)Nc2ncns2)cc1Br)[C@@H](C)N (single isomer, unassigned) , thanks.
Reply: > 33800 nM

Task item: Also Cc1cc(NC[C@H](CC(C)(C)CCN)[C@@H](C)N)c(C#N)cc1S(=O)(=O)Nc1ncns1 , if possible.
Reply: 10100 nM

Task item: Now consider C[C@@H](N)C(CNc1cc(F)c(S(=O)(=O)Nc2ncns2)cc1F)CC1CCCCC1CCN (single isomer, unassigned) [Example 61] .
Reply: > 33800 nM

Task item: // same read-out, input: C[C@@H](N)C(CNc1ccc(S(=O)(=O)Nc2ncns2)c(F)c1)CC1(CCN)CC(F)(F)C1 (single isomer, unassigned)
Reply: > 33800 nM

Ref: patent US12246008B2
